Listing of entries alongside the reported pIC50.
Tested on: MCF-7
test protocol: Effect on multidrug resistant cell lines, IC50 72 hours
Type: cell-based
experimental parameters: Homo sapiens, MCF7, 72 h; MCF-7, Breast
Scale: pIC50 equals -log10([C]), with [C] in mol/L.

CC(=O)O[C@H]1C(=O)[C@@]2(C)[C@H]([C@H](OC(=O)c3ccccc3)[C@]3(O)C[C@H](OC(=O)[C@H](O)[C@@H](NC(=O)c4ccccc4)c4ccccc4)C(C)=C1C3(C)C)[C@]1(OC(C)=O)CO[C@@H]1C[C@@H]2O [Paclitaxel, reference compound]
8.70

Okay, next one:
Please give the measured pIC50 for this compound: CC(C)[C@H](CO)Nc1nc(Nc2ccc(C(=O)NCCNS(=O)(=O)c3cccc4c(N(C)C)cccc34)c(Cl)c2)c2ncn(C(C)C)c2n1
5.35
